# STUDY_TARGET: FLT1 (Homo sapiens, UniProt P17948)
# Sequence (P17948 27-1338): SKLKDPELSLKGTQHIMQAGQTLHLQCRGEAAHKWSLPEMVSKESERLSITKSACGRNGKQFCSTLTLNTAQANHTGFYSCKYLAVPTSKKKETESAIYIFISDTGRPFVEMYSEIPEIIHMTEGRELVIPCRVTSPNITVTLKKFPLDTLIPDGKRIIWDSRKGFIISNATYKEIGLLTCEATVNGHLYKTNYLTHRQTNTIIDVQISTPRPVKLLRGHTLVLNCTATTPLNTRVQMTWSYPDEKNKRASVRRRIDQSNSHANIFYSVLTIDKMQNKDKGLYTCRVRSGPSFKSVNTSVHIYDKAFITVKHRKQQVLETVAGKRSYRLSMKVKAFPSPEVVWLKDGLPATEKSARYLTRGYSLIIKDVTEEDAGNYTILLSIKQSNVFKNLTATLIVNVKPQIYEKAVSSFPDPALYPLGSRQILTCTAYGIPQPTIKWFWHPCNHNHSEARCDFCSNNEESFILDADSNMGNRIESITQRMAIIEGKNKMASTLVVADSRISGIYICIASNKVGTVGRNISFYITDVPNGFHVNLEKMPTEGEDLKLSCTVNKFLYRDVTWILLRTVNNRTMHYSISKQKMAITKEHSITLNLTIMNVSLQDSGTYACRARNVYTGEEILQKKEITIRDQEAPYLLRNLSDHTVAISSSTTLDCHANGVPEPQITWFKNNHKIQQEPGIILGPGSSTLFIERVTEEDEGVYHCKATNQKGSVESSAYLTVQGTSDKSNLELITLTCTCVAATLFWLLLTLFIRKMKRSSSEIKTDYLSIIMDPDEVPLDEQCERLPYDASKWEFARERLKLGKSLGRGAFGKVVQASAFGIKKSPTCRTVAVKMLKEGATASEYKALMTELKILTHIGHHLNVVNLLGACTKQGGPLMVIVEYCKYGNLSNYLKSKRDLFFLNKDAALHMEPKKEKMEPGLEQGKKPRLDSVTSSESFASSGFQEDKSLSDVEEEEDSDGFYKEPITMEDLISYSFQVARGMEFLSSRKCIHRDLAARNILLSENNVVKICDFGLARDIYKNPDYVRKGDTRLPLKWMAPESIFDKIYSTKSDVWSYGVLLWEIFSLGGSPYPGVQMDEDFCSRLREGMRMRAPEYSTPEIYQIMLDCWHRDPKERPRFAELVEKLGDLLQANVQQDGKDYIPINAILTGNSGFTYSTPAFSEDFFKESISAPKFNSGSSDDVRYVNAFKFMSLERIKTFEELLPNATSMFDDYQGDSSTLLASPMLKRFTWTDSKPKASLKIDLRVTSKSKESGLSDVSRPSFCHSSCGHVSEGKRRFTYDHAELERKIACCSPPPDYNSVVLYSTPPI
pIC50: −log10 of the molar value.
OBSERVATION_TYPE: pIC50

[Q] Could you share what pIC50 was measured for COc1cc2c(Oc3ccc(NC(=O)C4(C(=O)Nc5ccc(F)cc5)CC4)cc3)ccnc2cc1OC(=O)N1CCN(C)CC1 [Compound 1-10] , tested on FLT1 (Homo sapiens, UniProt P17948)?
[A] 6.00 to 7.00

====

The following compounds are listed with their measured pIC50 values.
# STUDY_TARGET: KDR/VEGFR2 (Homo sapiens, UniProt P35968)
# Sequence (P35968 20-1356): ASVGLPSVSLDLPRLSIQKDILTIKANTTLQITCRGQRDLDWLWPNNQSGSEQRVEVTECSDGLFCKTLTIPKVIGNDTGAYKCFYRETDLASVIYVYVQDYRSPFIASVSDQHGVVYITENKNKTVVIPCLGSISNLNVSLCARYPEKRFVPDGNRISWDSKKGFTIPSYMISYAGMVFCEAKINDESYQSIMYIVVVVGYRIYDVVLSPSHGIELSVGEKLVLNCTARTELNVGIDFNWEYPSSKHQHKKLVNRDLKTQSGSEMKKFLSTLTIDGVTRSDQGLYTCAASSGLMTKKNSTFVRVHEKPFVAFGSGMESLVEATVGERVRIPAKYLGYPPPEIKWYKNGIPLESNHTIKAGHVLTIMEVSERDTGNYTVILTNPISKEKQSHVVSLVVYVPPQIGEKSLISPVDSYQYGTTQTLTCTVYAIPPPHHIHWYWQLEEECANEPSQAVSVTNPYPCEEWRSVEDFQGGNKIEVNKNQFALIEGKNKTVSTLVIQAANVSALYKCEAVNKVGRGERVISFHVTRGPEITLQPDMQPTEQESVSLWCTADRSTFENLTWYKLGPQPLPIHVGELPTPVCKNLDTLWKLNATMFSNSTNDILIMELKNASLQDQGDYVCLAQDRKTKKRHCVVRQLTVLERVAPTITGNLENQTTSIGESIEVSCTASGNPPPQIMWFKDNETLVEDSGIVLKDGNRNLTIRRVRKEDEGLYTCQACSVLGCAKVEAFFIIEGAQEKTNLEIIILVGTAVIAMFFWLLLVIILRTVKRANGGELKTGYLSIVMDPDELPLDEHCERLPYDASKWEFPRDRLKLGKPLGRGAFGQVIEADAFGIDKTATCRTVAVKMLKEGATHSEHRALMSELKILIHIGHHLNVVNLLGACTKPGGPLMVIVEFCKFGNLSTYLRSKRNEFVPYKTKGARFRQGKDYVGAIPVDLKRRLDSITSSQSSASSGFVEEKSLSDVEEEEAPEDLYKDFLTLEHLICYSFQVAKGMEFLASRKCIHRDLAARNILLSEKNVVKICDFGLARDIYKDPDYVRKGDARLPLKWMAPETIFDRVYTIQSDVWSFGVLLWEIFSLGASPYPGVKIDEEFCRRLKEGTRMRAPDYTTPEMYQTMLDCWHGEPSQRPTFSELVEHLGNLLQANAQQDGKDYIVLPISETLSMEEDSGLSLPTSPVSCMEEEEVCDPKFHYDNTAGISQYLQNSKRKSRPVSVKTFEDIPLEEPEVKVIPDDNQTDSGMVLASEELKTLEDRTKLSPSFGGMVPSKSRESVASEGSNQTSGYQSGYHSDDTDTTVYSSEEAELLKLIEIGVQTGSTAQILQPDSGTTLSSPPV
# TEST_DESCRIPTION: HotSpot Kinase Assay, KDR/VEGFR2
pIC50: −log10 of the molar value.

Past entries and their recorded results:
{"columns": ["CHEMICAL_STRING", "pIC50"],
 "data": [
  ["COc1cc2c(Oc3ccc(NC(=O)C4(C(=O)Nc5ccc(F)cc5)CC4)cc3)ccnc2cc1OC(=O)N1CCC(F)(F)CC1", "< 6.00"],
  ["COc1cc2c(Oc3ccc(NC(=O)C4(C(=O)Nc5ccc(F)cc5)CC4)cc3)ncnc2cc1OC(=O)N1CCN(C)C[C@H]1C", "< 6.00"],
  ["COc1cc2c(Oc3ccc(NC(=O)C4(C(=O)Nc5ccc(F)cc5)CC4)cc3)ccnc2cc1OC(=O)N1CC[C@H](O)C1", "< 6.00"],
  ["COc1cc2c(Oc3ccc(NC(=O)C4(C(=O)Nc5ccc(F)cc5)CC4)cc3)ccnc2cc1OC(=O)N1CCNCC1(C)C", "< 6.00"],
  ["COc1cc2c(Oc3ccc(NC(=O)C4(C(=O)Nc5ccc(F)cc5)CC4)cc3)ccnc2cc1OC(=O)N1CC[C@@H](O)C1", "< 6.00"]
]}

Consider the additional compound presented here.
[Q] // lookup pIC50 for `COc1cc2c(Oc3ccc(NC(=O)C4(C(=O)Nc5ccc(F)cc5)CC4)cc3)ccnc2cc1N1CCNC1=O`
[A] 6.00 to 7.00
